// data source = patent US5700833A

Test system: prostacyclin receptor (CNS) in the thalamus ([^3 H] isocarbacyclin receptor)
method: Displacement test relative to tritium-labelled isocarbacyclin, thalamus (CNS), autoradiography of frozen brain sections
Assay type: binding, rat
condition_label: thalamus (CNS); un-labelled compound 3 × 10^-7 M; 10 nM [^3 H]isocarbacyclin; 4° C., 2 h, pH 7.4; 0.3 µM
In this section, each of the molecules is paired with its reported Binding ratio to [^3 H] isocarbacyclin receptor.
Report as a plain number; the unit % is understood.

>>> test_value("Cc1cccc(C[C@@H](O)/C=C/[C@@H]2[C@H]3CC(CCCCC(=O)O)=C[C@H]3C[C@H]2O)c1 [Compound A]")
25.4

// query Param readout= Binding ratio to [^3 H] isocarbacyclin receptor; system= prostacyclin receptor (CNS) in the thalamus ([^3 H] isocarbacyclin receptor); entry= CCCCC[C@H](O)/C=C/[C@@H]1[C@H]2CC(CCCCC(=O)O)=C[C@H]2C[C@H]1O [Isocarbacyclin, 9(O)-methano-Δ^6(9α) prostaglandin I1] ; returns value.
// result 34.7

// query Give prostacyclin receptor (CNS) in the thalamus ([^3 H] isocarbacyclin receptor) Binding ratio to [^3 H] isocarbacyclin receptor for Cc1cccc(CCC[C@H](O)/C=C/[C@@H]2[C@H]3CC(CCCCC(=O)O)=C[C@H]3C[C@H]2O)c1 [Compound D]
// result 94.1

// query Hello, I am looking for reported Binding ratio to [^3 H] isocarbacyclin receptor with prostacyclin receptor (CNS) in the thalamus ([^3 H] isocarbacyclin receptor) for Cc1cccc(C[C@H](O)/C=C/[C@@H]2[C@H]3CC(CCCCC(=O)O)=C[C@H]3C[C@H]2O)c1 [Compound B] . Could you help?
// result 36.6

// query Give recorded Binding ratio to [^3 H] isocarbacyclin receptor with prostacyclin receptor (CNS) in the thalamus ([^3 H] isocarbacyclin receptor) for the following molecule: Cc1cccc(CCC[C@@H](O)/C=C/[C@@H]2[C@H]3CC(CCCCC(=O)O)=C[C@H]3C[C@H]2O)c1 [Compound C]
// result 73.3
